Target: σ2R (Rattus norvegicus)
Construct: from tissue; host or cells: rat liver homogenate
Test: σ2R radioligand binding assay with [125I]RHM-4, rat liver homogenates
Conditions: ratio of Ki σ1R to Ki σ2R
Listed here: items and their measured σ1/σ2 Ratio.
measure-name: σ1/σ2 Ratio

INSERT INTO measurements (molecule, tested_on, observed_result) VALUES
  ('Cn1c(=O)n(CCCCN2CC3CC2CN3c2ccc(F)cc2)c2ccccc21 (centres unmarked) [Compound 2r]', 'σ2R (Rattus norvegicus)', 66),
  ('CCN(c1ccc(F)cc1)C1CN(CCCCn2c(=O)n(C)c3ccccc32)C1 [Compound 2u]', 'σ2R (Rattus norvegicus)', 15),
  ('Cn1c(=O)n(CCCCN2CCN(c3cccc(F)c3)CC2)c2ccccc21 [Compound 7, reference compound]', 'σ2R (Rattus norvegicus)', 351),
  ('Cn1c(=O)n(CCCCN2CCCN(c3ccc(F)cc3)CC2)c2ccccc21 [Compound 2t]', 'σ2R (Rattus norvegicus)', 67),
  ('Cn1c(=O)n(CCCCN2CCC3(CC2)CCN(c2ccccc2F)CC3)c2ccccc21 [Compound 2e]', 'σ2R (Rattus norvegicus)', 27),
  ('Cn1c(=O)n(CCCCN2CC3(C2)CN(c2ccc(F)cc2)C3)c2ccccc21 [Compound 2o]', 'σ2R (Rattus norvegicus)', 1.1),
  ('Cn1c(=O)n(CCCCN2CC3(C2)CN(c2ccccc2F)C3)c2ccccc21 [Compound 2n]', 'σ2R (Rattus norvegicus)', 0.5),
  ('Cn1c(=O)n(CCCCN2CCN(c3ccc(F)cc3)CC2)c2ccccc21 [Compound 1, reference compound]', 'σ2R (Rattus norvegicus)', 279);

====

Listed here: items and their measured Ki.
Target: σ1R (Cavia porcellus)
Construct: from tissue; host or cells: Guinea pig brain homogenate
Assay: σ1R radioligand binding assay with [3H]-(+)-pentazocine, Guinea pig brain homogenates
Details: mean ± SEM, at least three experiments
measure-name: Ki (nM)

INSERT INTO results (compound, unit_string, observed_result) VALUES
  ('Cn1c(=O)n(CCCCN2CC3(C2)CN(c2ccccc2F)C3)c2ccccc21', 'nM', 20.5),
  ('Cn1c(=O)n(CCCCN2CCN(c3cccc(F)c3)CC2)c2ccccc21 [Compound 7, reference compound]', 'nM', 702),
  ('CCN(c1ccc(F)cc1)C1CN(CCCCn2c(=O)n(C)c3ccccc32)C1', 'nM', 279),
  ('Cn1c(=O)n(CCCCN2CCN(c3ccc(F)cc3)CC2)c2ccccc21 [Compound 1, reference compound]', 'nM', 251);

====

Listed here: items and their measured Ki.
Molecular target: σ2R (Rattus norvegicus, UniProt Q5U3Y7)
Construct: from tissue; host or cells: rat liver homogenate
Sequence (Q5U3Y7 whole entry): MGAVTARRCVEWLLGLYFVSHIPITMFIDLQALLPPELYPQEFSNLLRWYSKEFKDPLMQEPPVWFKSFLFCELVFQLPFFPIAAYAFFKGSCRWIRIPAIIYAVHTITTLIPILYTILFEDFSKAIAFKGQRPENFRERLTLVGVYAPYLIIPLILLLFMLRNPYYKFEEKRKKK
Assay: σ2R radioligand binding assay with [125I]RHM-4, rat liver homogenates
Details: rat liver homogenates, [125I]RHM-4; mean ± SEM, at least three experiments
measure-name: Ki (nM)

INSERT INTO results (molecule, observed_result) VALUES
  ('Cn1c(=O)n(CCCCN2CC3(C2)CN(c2ccc(F)cc2)C3)c2ccccc21', 40),
  ('Cn1c(=O)n(CCCCN2CC3(C2)CN(c2ccccc2F)C3)c2ccccc21', 41.8),
  ('Cn1c(=O)n(CCCCN2CC3CC2CN3c2ccc(F)cc2)c2ccccc21 (stereo not shown)', 10.7),
  ('CCN(c1ccc(F)cc1)C1CN(CCCCn2c(=O)n(C)c3ccccc32)C1', 18.8),
  ('Cn1c(=O)n(CCCCN2CCCN(c3ccc(F)cc3)CC2)c2ccccc21', 3.8),
  ('Cn1c(=O)n(CCCCN2CCN(c3cccc(F)c3)CC2)c2ccccc21 [Compound 7, reference compound]', 2),
  ('Cn1c(=O)n(CCCCN2CCC3(CC2)CCN(c2ccccc2F)CC3)c2ccccc21', 24.4);

====

Biological target: σ1R (Cavia porcellus, UniProt Q60492)
Construct: from tissue; host or cells: Guinea pig brain homogenate
Sequence (Q60492 whole entry): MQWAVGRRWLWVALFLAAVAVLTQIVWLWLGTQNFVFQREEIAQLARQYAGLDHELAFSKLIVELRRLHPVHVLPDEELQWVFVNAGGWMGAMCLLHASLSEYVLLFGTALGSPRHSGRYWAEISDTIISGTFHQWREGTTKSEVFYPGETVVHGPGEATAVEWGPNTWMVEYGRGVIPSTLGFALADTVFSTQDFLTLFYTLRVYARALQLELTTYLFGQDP
Assay: σ1R radioligand binding assay with [3H]-(+)-pentazocine, Guinea pig brain homogenates
Details: mean ± SEM, at least three experiments
Listed here: items and their measured Ki.
measure-name: Ki (nM)

INSERT INTO results (molecule, observed_result) VALUES
  ('Cn1c(=O)n(CCCCN2CC3CC2CN3c2ccc(F)cc2)c2ccccc21 (stereo not shown)', 712),
  ('Cn1c(=O)n(CCCCN2CCC3(CC2)CCN(c2ccccc2F)CC3)c2ccccc21', 659),
  ('Cn1c(=O)n(CCCCN2CCCN(c3ccc(F)cc3)CC2)c2ccccc21', 255),
  ('Cn1c(=O)n(CCCCN2CC3(C2)CN(c2ccc(F)cc2)C3)c2ccccc21', 45.9);
